Recorded values, source ChEMBL document CHEMBL5724801.

Listing: Population Mitochondria Different-Phenotype (%) of selected molecules
- Test system: U2OS
- assay_overview: Multiplex assay against U2OS
- Assay type: toxicity, cell-based
- condition_context: human, 48 h, 1 µM, compound concentration 1 uM
In your response, the unit should come after the numeric value.

Consider the reported Population Mitochondria Different-Phenotype (%) for these molecules:
molecule="Br.CS(=O)(=O)Nc1c(O)ccc2c1CCCC2C1=NCCN1 (stereo not given)" result_value=2%
molecule="CC(C)(C)c1ccc(CSc2cnn(C(C)(C)C)c(=O)c2Cl)cc1 [PYRIDABEN]" result_value=3%
molecule=CCCOc1ccc2[nH]cc(C3=CCNCC3)c2n1.Cl result_value=3%

**Q:** // Population Mitochondria Different-Phenotype (%) lookup, key: CC(C)COc1ccc(CNC(=O)N(Cc2ccc(F)cc2)C2CCN(C)CC2)cc1 [PIMAVANSERIN]
**A:** 5%

**Q:** How about this molecule: CCCC(CCC)C(=O)O [VALPROIC ACID]
**A:** 5%

###

- Test system: U2OS
- assay_overview: Multiplex assay against U2OS
- Type: toxicity, cell-based
- condition_context: human, 48 h, 10 µM, compound concentration 10 uM
readout_label: Population Tubulin-Different-Phenotype (%)
State the answer as a number, implicitly in %.

Consider the reported Population Tubulin-Different-Phenotype (%) for these molecules:
molecule=N[C@@]1(C(=O)O)CO[C@H]2[C@H](C(=O)O)[C@H]21 result_value=3
molecule=CCCOc1ccc2[nH]cc(C3=CCNCC3)c2n1.Cl result_value=3
molecule="Br.CS(=O)(=O)Nc1c(O)ccc2c1CCCC2C1=NCCN1 (centres undefined)" result_value=2

// switching to the query molecule
**Q:** // Population Tubulin-Different-Phenotype (%) lookup, key: CC(=O)NCCc1c(Cc2ccccc2)[nH]c2ccccc12
**A:** 3

###

- Tested on: U2OS
- assay_overview: Multiplex assay against U2OS
- Type: toxicity, cell-based
- condition_context: human, 24 h, 1 µM, compound concentration 1 uM
Non-standard residues stand in square brackets, D forms with d. Residues, ends and D or L forms follow the SMILES beside them.
readout_label: Population Normal (%)
State the answer as a number, implicitly in %.

Consider the reported Population Normal (%) for these compounds:
compound=Clc1ccccc1C(c1ccccc1)(c1ccccc1)n1cccn1 readout_label="Population Normal (%)" readout_unit=% result_value=100
compound="COc1ccc(Cl)cc1[C@]1(F)C(=O)Nc2cc(C(F)(F)F)ccc21 [FLINDOKALNER]" readout_label="Population Normal (%)" readout_unit=% result_value=100
compound="O=C(Nc1cc(C(F)(F)F)cc(C(F)(F)F)c1)c1cc(Cl)ccc1O [IMD-0354]" readout_label="Population Normal (%)" readout_unit=% result_value=100
compound="Cc1noc(C)c1-c1cnc2c(-c3ccc(C(=O)O)cc3)cn([C@@H](C)c3ccccn3)c2c1 [PLX-51107]" readout_label="Population Normal (%)" readout_unit=% result_value=100
compound=O=C(NCCO)c1cccc(-c2cc(Nc3ccc(OC(F)(F)F)cc3)ncn2)c1 readout_label="Population Normal (%)" readout_unit=% result_value=98

**Q:** // Population Normal (%) lookup, key: COc1ccccc1N1CCN(C[C@@H](C(=O)NC(C)(C)C)c2ccccc2)CC1.Cl.Cl
**A:** 96

**Q:** How about this compound: COCCNc1nc2ccc(C#CC3(O)CCCCC3)cc2n1-c1ccnc(N)n1
**A:** 100

**Q:** How about this compound: CC(C)C[C@@H]1NC(=O)[C@@H](C(C)C)NC(=O)[C@@H]2CCCN2C(=O)[C@@H](CC(=O)O)NC(=O)[C@@H](Cc2c[nH]c3ccccc23)NC1=O [BQ-123] (cyclo(L[dW][dD]P[dV]))
**A:** 99

**Q:** How about this compound: CCOc1ccccc1C(=O)NCC1(N2CCN(CC)CC2)CCCCC1
**A:** 100
